assay: Microsomal stability assay, rat; format: in vitro ADME; conditions: rat microsomes, read-out: Microsomal Stability (T1/2 min) Rat

Smiles String	half-life
CN(C)CCNCC1=C(c2ccc(F)cc2)c2cc(F)ccc2OC1	< 10 min
Fc1ccc(C2=C(c3nc(-c4ccccc4)no3)COc3ccc(OCC4CC4)cc32)cc1	> 30 min
COc1ccc2c(c1)C(c1cccc(F)c1)=C(CN1CCCC1)CO2	< 10 min
N#CCCOc1ccc2c(c1)C(c1ccc(F)cc1)=C(CN1CCCC1)CO2	< 10 min
CN1CCN(C(=O)C2=C(c3ccc(F)cc3)c3cc(OC(F)F)ccc3OC2)CC1	< 10 min
CC(C)(O)CCOc1ccc2c(c1)C(c1ccc(F)cc1)=C(C(=O)N1CCCC1)CO2	10 to 30 min
Fc1ccc(C2=C(CN3CCCC3)COc3ccc(OCCc4nnn[nH]4)cc32)cc1	> 30 min
CCNC(=O)C1=C(c2ccc(F)cc2)c2cc(OC(F)F)ccc2OC1	< 10 min
CN1CCN(C(=O)C2=C(c3ccc(F)cc3)c3cc(F)ccc3OC2)CC1	< 10 min
CN1CCN(CCOc2ccc3c(c2)C(c2ccc(F)cc2)=C(C(=O)N2CCCC2)CO3)CC1	> 30 min
CN1CCN(C(=O)C2=C(c3ccc(F)cc3)c3cc(C(F)(F)F)ccc3OC2)CC1	< 10 min
CN1CCN(CC2=C(c3ccc(F)cc3)c3cc(OC(F)(F)F)ccc3OC2)CC1	> 30 min
COc1ccc2c(c1)C(c1ccc(Cl)cc1)=C(C(=O)N1CCN(C)CC1)CO2	< 10 min
Fc1ccc(C2=C(CN3CCOCC3)COc3ccc(OC(F)F)cc32)cc1	10 to 30 min
CCNC(=O)C1=C(c2ccc(F)cc2)c2cc(OC(F)(F)F)ccc2OC1	< 10 min
CN1CCN(C(=O)C2=C(c3ccc(F)cc3)c3cc(OC(F)(F)F)ccc3OC2)CC1	< 10 min
O=C(C1=C(c2ccc(F)cc2)c2cc(OCCN3CCCCC3)ccc2OC1)N1CCCC1	> 30 min
CN1CCN(C(=O)C2=C(c3ccc(F)cc3)c3cc(OC4CC4)ccc3OC2)CC1	< 10 min
CC(C)Oc1ccc2c(c1)C(c1ccc(F)cc1)=C(CN1CCCC1)CO2	< 10 min
COc1ccc2c(c1)C(c1ccc(Cl)cc1)=C(CN1CCCC1)CO2	< 10 min
COc1ccc2c(c1)C(c1cccc(F)c1)=C(C(=O)N1CCN(C)CC1)CO2	< 10 min
O=c1[nH]c(CCOc2ccc3c(c2)C(c2ccc(F)cc2)=C(CN2CCCC2)CO3)no1	10 to 30 min
CC(C)Oc1ccc2c(c1)C(c1ccc(F)cc1)=C(C(=O)N1CCN(C)CC1)CO2	10 to 30 min
Fc1ccc(C2=C(CN3CCCC3)COc3ccc(C(F)(F)F)cc32)cc1	10 to 30 min
CN(C)CCNC(=O)C1=C(c2ccc(F)cc2)c2cc(OC(F)(F)F)ccc2OC1	> 30 min
Fc1ccc(C2=C(CN3CCCC3)COc3ccc(OCCN4CCCCC4)cc32)cc1	> 30 min
CC(C)c1ccc2c(c1)C(c1ccc(F)cc1)=C(CN1CCCC1)CO2	< 10 min
CN(C)CCNC(=O)C1=C(c2ccc(F)cc2)c2cc(OC(F)F)ccc2OC1	10 to 30 min
Fc1ccc(C2=C(CN3CCCC3)COc3ccc(F)cc32)cc1	< 10 min
COc1ccc2c(c1)C(c1ccc(C#N)cc1)=C(CN1CCCC1)CO2	< 10 min
O=C(O)CCOc1ccc2c(c1)C(c1ccc(F)cc1)=C(CN1CCCC1)CO2	> 30 min
CCNCC1=C(c2ccc(F)cc2)c2cc(OC(F)F)ccc2OC1	< 10 min
CN1CCN(CC2=C(c3ccc(F)cc3)c3cc(F)ccc3OC2)CC1	< 10 min
O=C(O)CCOc1ccc2c(c1)C(c1ccc(F)cc1)=C(C(=O)N1CCCC1)CO2	> 30 min

* * *

experiment: Microsomal stability assay, rat; assay type: in vitro ADME; settings: rat microsomes, read-out: Microsomal Stability (T1/2 min) Rat
half-life by entry:
Readout: half-life

Compound	Measured
O=C(C1=C(c2ccc(F)cc2)c2cc(OC(F)F)ccc2OC1)N1CCCC1 [Compound I-1]	< 10 min
COc1ccc2c(c1)C(c1ccc(C(F)(F)F)cc1)=C(CN1CCCC1)CO2 [Compound I-20]	< 10 min
CN1CCN(C(=O)C2=C(c3ccc(F)cc3)c3ccccc3OC2)CC1 [Compound I-44]	< 10 min

* * *

assay: Microsomal stability assay, human; assay type: in vitro ADME; conditions: human microsomes, read-out: Microsomal Stability (T1/2 min) Human
# maps each entry to its half-life
Readout: half-life

Smiles String	Readout	Measured
CN1CCN(C(=O)C2=C(c3ccc(F)cc3)c3cc(OC(F)(F)F)ccc3OC2)CC1	half-life	10 to 30 min
Fc1ccc(C2=C(CN3CCCC3)COc3ccc(OCCc4nnn[nH]4)cc32)cc1	half-life	> 30 min
CC(C)Oc1ccc2c(c1)C(c1ccc(F)cc1)=C(CN1CCCC1)CO2	half-life	10 to 30 min
Fc1ccc(C2=C(c3nc(-c4ccccc4)no3)COc3ccc(OCC4CC4)cc32)cc1	half-life	10 to 30 min

* * *

assay: Microsomal stability assay, human; assay type: in vitro ADME; conditions: human microsomes, read-out: Microsomal Stability (T1/2 min) Human

Smiles String	half-life
[2H]C([2H])([2H])Oc1ccc2c(c1)C(c1ccc(F)cc1)=C(CN1CCCC1)CO2	10 to 30 min
COc1ccc2c(c1)C(c1cccc(F)c1)=C(CN1CCCC1)CO2	10 to 30 min
CN(C)CCNC(=O)C1=C(c2ccc(F)cc2)c2cc(OC(F)F)ccc2OC1	> 30 min
Fc1ccc(C2=C(CN3CCCC3)COc3ccc(C(F)(F)F)cc32)cc1	> 30 min
CN1CCN(C(=O)C2=C(c3ccc(F)cc3)c3cc(F)ccc3OC2)CC1	> 30 min
CN(C)CCNCC1=C(c2ccc(F)cc2)c2cc(F)ccc2OC1	10 to 30 min
COc1ccc2c(c1)C(c1ccc(C(F)(F)F)cc1)=C(CN1CCCC1)CO2	10 to 30 min
O=C(C1=C(c2ccc(F)cc2)c2cc(OC(F)F)ccc2OC1)N1CCCC1	< 10 min
CC(C)(O)CCOc1ccc2c(c1)C(c1ccc(F)cc1)=C(C(=O)N1CCCC1)CO2	< 10 min
Fc1ccc(C2=C(CN3CCCC3)COc3ccc(OCCN4CCCCC4)cc32)cc1	> 30 min
N/C(CCOc1ccc2c(c1)C(c1ccc(F)cc1)=C(CN1CCCC1)CO2)=N\O	> 30 min
CN1CCN(CC2=C(c3ccc(F)cc3)c3cc(OC(F)(F)F)ccc3OC2)CC1	> 30 min
CN1CCN(C(=O)C2=C(c3ccc(F)cc3)c3cc(Cl)ccc3OC2)CC1	10 to 30 min

* * *

assay: Microsomal stability assay, mouse; assay type: in vitro ADME; conditions: mouse microsomes, read-out: Microsomal Stability (T1/2 min) Mouse

Molecule	half-life
CC(C)(O)CCOc1ccc2c(c1)C(c1ccc(F)cc1)=C(CN1CCCC1)CO2 [Compound I-35]	10 to 30 min
Fc1ccc(C2=C(c3nc(-c4ccccc4)no3)COc3ccc(OCC4CC4)cc32)cc1 [Compound I-12]	> 30 min
CN(C)CCNC(=O)C1=C(c2ccc(F)cc2)c2cc(OC(F)(F)F)ccc2OC1 [Compound I-10]	> 30 min
O=C(O)CCOc1ccc2c(c1)C(c1ccc(F)cc1)=C(CN1CCCC1)CO2 [Compound I-33]	> 30 min
CN1CCN(CC2=C(c3ccc(F)cc3)c3cc(F)ccc3OC2)CC1 [Compound I-59]	10 to 30 min
COc1ccc2c(c1)C(c1ccc(C#N)cc1)=C(CN1CCCC1)CO2 [Compound I-22]	< 10 min
CN1CCN(C(=O)C2=C(c3ccc(F)cc3)c3cc(OC(F)(F)F)ccc3OC2)CC1 [Compound I-9]	10 to 30 min
O=C(C1=C(c2ccc(F)cc2)c2cc(OCCN3CCCCC3)ccc2OC1)N1CCCC1 [Compound I-41]	> 30 min
CCNC(=O)C1=C(c2ccc(F)cc2)c2cc(OC(F)(F)F)ccc2OC1 [Compound I-8]	< 10 min
CN1CCN(C(=O)C2=C(c3ccc(F)cc3)c3cc(OC(F)F)ccc3OC2)CC1 [Compound I-3]	< 10 min
CC(C)Oc1ccc2c(c1)C(c1ccc(F)cc1)=C(C(=O)N1CCN(C)CC1)CO2 [Compound I-23]	< 10 min
CN1CCN(C(=O)C2=C(c3ccc(F)cc3)c3cc(OC4CC4)ccc3OC2)CC1 [Compound I-27]	< 10 min
CN1CCN(C(=O)C2=C(c3ccc(F)cc3)c3cc(Cl)ccc3OC2)CC1 [Compound I-25]	< 10 min
O=C(C1=C(c2ccc(F)cc2)c2cc(OC(F)(F)F)ccc2OC1)N1CCCC1 [Compound I-7]	< 10 min
Fc1ccc(C2=C(CN3CCCC3)COc3ccc(OCCc4nnn[nH]4)cc32)cc1 [Compound I-34]	> 30 min
COc1ccc2c(c1)C(c1ccc(C#N)cc1)=C(C(=O)N1CCN(C)CC1)CO2 [Compound I-30]	< 10 min
CN1CCN(C(=O)C2=C(c3ccc(F)cc3)c3ccccc3OC2)CC1 [Compound I-44]	< 10 min
